Examples of binders with documented neutralization IC50 follow.
# TARGET_OR_SYSTEM: HIV-1 Env of 0260.v5.c36 (HIV-1)
# METHOD: cell-based or functional assay
REPORTED_PROPERTY: neutralization IC50

INSERT INTO measurements (binder, result) VALUES
  ('CAP256-VRC26.10 (antibody, V domains shown) VH: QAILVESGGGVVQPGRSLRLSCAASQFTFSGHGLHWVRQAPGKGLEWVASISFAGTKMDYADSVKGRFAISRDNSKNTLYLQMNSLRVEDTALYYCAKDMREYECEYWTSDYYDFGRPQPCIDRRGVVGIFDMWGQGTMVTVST VL: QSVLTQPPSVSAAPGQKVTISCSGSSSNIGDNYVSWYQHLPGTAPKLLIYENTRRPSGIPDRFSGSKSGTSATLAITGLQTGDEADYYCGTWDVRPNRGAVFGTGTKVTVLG', '> 50 µg/mL'),
  ('CAP256-VRC26.12 (antibody, V domains shown) VH: EVQLVQSGGGVVQPGRSLRLSCAAPYFEFGRYGFHWVRQAPGKGLEWVASISFAGRDYYHSPSVWGRFTISRDNSKNTLYLQMNSLRIEDTALYFCARDLRESECEEWESDYYDFGKKGPCVKPRGVAGGLDLWGQGTMVIVSS VL: QSVLTQPPSVSTAPGQTVTVSCSGGTSNTGNNFVSWYQHLPGTAPKLLIYENNKRPLGVPDRFSGAKSGTSATLAITGLQTGDEGDYYCATWSGSLNIGTGTKVSVLG', '> 50 µg/mL'),
  ('CAP256-VRC26.01 (antibody, V domains shown) VH: EVQVVESGGGVVQPGRSLRLSCTASGFTFSNFAMGWVRQAPGKGLEWVAFISSDGSNKNYGDSVKGRFTISRDNSKNTVFLQMNSLRVEDTALYYCAKDVGDYKSDEWGTEYYDISISYPIQDPRAMVGAFDLWGQGTMVTVSP VL: QSVLTQPPSVSAAPGQKVTISCSGSSSTIGNNYVSWYRLLPGTAPKLLIYKNDNRPSGIPDRFSGSKSGTSATLGISGLQTGDEADYYCGTWDTSLSGGGVFGTGTKVTVLG', '> 50 µg/mL');
